- target system: human IGF-1 receptor (human, UniProt P08069 31-1367)
- protocol details: cell-based or functional assay
Bridges are numbered along the chain shown (N, C = ends). Roman numbers before positions name the chains, in order. Where no end group is shown, it is not given here.
API: label(entry) gives Yes if the entry's % IGF, total phosphorylation is strictly smaller than 8%; on equality or larger values it gives No.

| binder | category |
| --- | --- |
| IGF-1 A:B(D10Y16L17) DPI A-COOH (ligand, disulfide I:6-I:11, I:20-II:18, I:7-II:6) chain 1: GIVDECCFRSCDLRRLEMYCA-OH chain 2: GPETLCGADLVDALYLVCGDRGFY-NH2 | No |
| IGF-1 A (H8 A9 N21):B(H5D10Y16L17) DPI A-COOH (ligand, disulfide I:6-I:11, I:20-II:18, I:7-II:6) chain 1: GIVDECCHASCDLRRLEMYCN-OH chain 2: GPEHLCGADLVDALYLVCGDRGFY-NH2 | No |
| IGF-1 A (H8 A9 N21):B(H5D10Y16L17 A22) DPI A-COOH (ligand) chain 1: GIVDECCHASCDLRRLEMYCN chain 2: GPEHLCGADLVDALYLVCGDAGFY | Yes |
| IGF-1 A:B (H5D10Y16L17) DPI (ligand, disulfide I:6-I:11, I:20-II:18, I:7-II:6) chain 1: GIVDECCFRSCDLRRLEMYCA-NH2 chain 2: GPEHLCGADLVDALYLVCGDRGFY-NH2 | Yes |

Moving on to another binder below.
Bench note: check whether IGF-1 A:B(E10Y16L17) (ligand, disulfide I:6-I:11, I:20-II:18, I:7-II:6; not fully specified (C-terminus)) chain 1: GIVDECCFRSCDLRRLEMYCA chain 2: GPETLCGAELVDALYLVCGDRGFYFNKPT shows % IGF, total phosphorylation below 8%
No
